- target_under_test: T1, mArtemin-MMH (mouse)
- T1 construct: also called msArtemin-MMH; msARTN.mmh
- T1 chain: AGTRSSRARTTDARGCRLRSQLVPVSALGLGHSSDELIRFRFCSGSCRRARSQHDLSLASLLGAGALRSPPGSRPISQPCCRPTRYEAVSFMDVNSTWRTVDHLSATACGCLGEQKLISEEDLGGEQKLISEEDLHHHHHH
- experiment_summary: BLI (Octet HTX), mAb captured on AHC tips, artemin at 3.75 nM, 25 C
Quick list: Artemin Binding Response (nm) per entry.

>  <binder>
H4H33335P (antibody, human IgG4 S228P, kappa, V domains shown, Fully human antibody; also called Artemin mAb; anti-ARTN antibody) VH: EVQLVESGGGLVQPGGSLRLSCAASGFTFSSYDMHWVRQATGKGLEWVSTIDTAGDTYYPGSVKGRFTISRENAKNSLYLQMNSLRAGDTAVYYCARDGELELQGYFDLWGRGTLVTVSS VL: DIQMTQSPSSLSASVGDRVTITCRASQIISIYLNWYQQKPGKAPKLLIYAASSLQSGVPSRFSGSGSGTDFTLTISSLQPEDFATYYCQQSYTTPLTFGGGTKVEIKR

>  <Artemin Binding Response (nm)>
0.02 nm

$$$$
>  <binder>
H4H33349P (antibody, human IgG4 S228P, kappa, V domains shown, Fully human antibody; also called Artemin mAb; anti-ARTN antibody) VH: QVQLVESGGGVVQPGRSLRLSCEASGFTFSDYDLHWVRQAPGKGLEWVAFISNDGSNEYYPKSVKGRFSISRDNSKNTLYLQMNSLRAEDTAVYHCTKERDYYYDSSGSLDYWGQGTLVTVSS VL: DIQMTQSPSSLSASVGDRVTITCRASQTINNYLNWYQQKPGKAPKLLIYTTSGLQSGVPSRFSGRGSGTDFTLAISSLQPEDFATYYCQQSYHSPFTFGPGTKVDIKR

>  <Artemin Binding Response (nm)>
0.07 nm

$$$$
>  <binder>
H4H33336P (antibody, human IgG4 S228P, kappa, V domains shown, Fully human antibody; also called Artemin mAb; anti-ARTN antibody) VH: QVQLVESGGGVVQPGRSLRLSCVASGFILSHYGMHWVRQAPGKGLEWVAVIWFDGTNKYYADSVKGRFTVSRDNSKNTLYMQMNSLRAEDTAVYYCARDPPPARRGNYNGMDVWGQGTTVTVSS VL: DIQMTQSPSSLSASVGDRVTITCRASQDIRNDLGWYQQKPGKAPKRLIFGASSLQSGVPLRFSGSGSGTEFTLTINNLQPEDFATFYCLQDNSYPWTFGQGTKVEIKR

>  <Artemin Binding Response (nm)>
0.01 nm

$$$$
>  <binder>
H4H33331P (antibody, human IgG4 S228P, kappa, V domains shown, Fully human antibody (human variable and constant domains) from a VELOCIMMUNE mouse; also called Artemin mAb; anti-ARTN antibody) VH: EVQLVESGGDLVQPGGSLKLSCAASGFTFSGSAMHWVRQASGKGLEWVGRIRNKVHRYATEYGASVKGRFTISRDDSKNTAYLQMNSLKIEDTAVYYCVVVVPGSIEAFDIWGQGTMVTVSS VL: DIQMTQSPSSLSASVGDRVTITCRASQSISTYLNWYQQKPGKAPNLLIYAASTLESGVPSRFSGSGSGTDFTLTISSLQPEDFEIYYCQQSYNIPWTFGQGTKVEIKR

>  <Artemin Binding Response (nm)>
0.03 nm

$$$$

Hey, just so you know, these numbers are from patent US20240352111A1.
